- assay_text: Plasma pharmacokinetics of BN201 in rats (LC-MS/MS, WinNonlin)
- Assay type: in vivo, Sprague Dawley Rat
- assay_conditions: male, Sprague Dawley; rat plasma, IP 10 mg/Kg once daily, 7 doses, Mean ± SEM
parameter: Cmax
Note: a bare number is incomplete; add the unit.

Entry CC(C)CN(CC(=O)N(CCCN1CCCC1=O)CC(N)=O)C(=O)CNCCc1ccccc1F [BN201] needs its Cmax filled in; supply it. 6680 ng/mL

---

- assay_text: Plasma pharmacokinetics of BN201 in rats (LC-MS/MS, WinNonlin)
- Assay type: in vivo, Sprague Dawley Rat
- assay_conditions: male, Sprague Dawley; rat plasma, IV infusion 25 mg/Kg over 2 h once daily, 7 doses, Mean ± SEM
- Description: […] • Group 1 and 2 served as sham and pathological control respectively and only saline was administered • Test compound was delivered once at various doses (as mentioned above) through IP or IV infusion in the respective groups. […] Observation and Readouts 9.1 Body weight […]
parameter: AUC(0-inf) (ng·h/mL)
Report only the number, with the unit ng·h/mL understood.

Entry CC(C)CN(CC(=O)N(CCCN1CCCC1=O)CC(N)=O)C(=O)CNCCc1ccccc1F needs its AUC(0-inf) filled in; supply it. 15400

---

- assay_text: Plasma pharmacokinetics of BN201 in rats (LC-MS/MS, WinNonlin)
- Type: in vivo, Sprague Dawley Rat
- assay_conditions: male, Sprague Dawley; rat plasma, IV infusion 25 mg/Kg over 2 h once daily, 7 doses, Mean ± SEM
- Procedure: […] • Group 1 and 2 served as sham and pathological control respectively and only saline was administered • Test compound was delivered once at various doses (as mentioned above) through IP or IV infusion in the respective groups. […] Observation and Readouts 9.1 Body weight […]
parameter: half-life (min)
Report only the number, with the unit min understood.

Entry CC(C)CN(CC(=O)N(CCCN1CCCC1=O)CC(N)=O)C(=O)CNCCc1ccccc1F needs its half-life filled in; supply it. 372

---

- assay_text: Plasma pharmacokinetics of BN201 in rats (LC-MS/MS, WinNonlin)
- Assay type: in vivo, Sprague Dawley Rat
- assay_conditions: male, Sprague Dawley; rat plasma, IP 70 mg/Kg once daily, 7 doses, Mean ± SEM
parameter: half-life (h)
Report only the number, with the unit h understood.

Entry CC(C)CN(CC(=O)N(CCCN1CCCC1=O)CC(N)=O)C(=O)CNCCc1ccccc1F needs its half-life filled in; supply it. 4.7

---

- assay_text: Plasma pharmacokinetics of BN201 in rats (LC-MS/MS, WinNonlin)
- Type: in vivo, Sprague Dawley Rat
- assay_conditions: male, Sprague Dawley; rat plasma, IP 10 mg/Kg once daily, 7 doses, Mean ± SEM
parameter: AUC(0-inf) (ng·h/mL)
Report only the number, with the unit ng·h/mL understood.

Entry CC(C)CN(CC(=O)N(CCCN1CCCC1=O)CC(N)=O)C(=O)CNCCc1ccccc1F [BN201] needs its AUC(0-inf) filled in; supply it. 6990

---

- assay_text: Plasma pharmacokinetics of BN201 in rats (LC-MS/MS, WinNonlin)
- Format: in vivo, Sprague Dawley Rat
- assay_conditions: male, Sprague Dawley; rat plasma, IP 25 mg/Kg once daily, 7 doses, Mean ± SEM
parameter: Cmax (ng/mL)
Report only the number, with the unit ng/mL understood.

Entry CC(C)CN(CC(=O)N(CCCN1CCCC1=O)CC(N)=O)C(=O)CNCCc1ccccc1F needs its Cmax filled in; supply it. 14400
